Form field: pKd (one value per entry).
Target Entity: CRBN truncate (318-426) (Homo sapiens (Human))
Sequence (Q96SW2 318-426): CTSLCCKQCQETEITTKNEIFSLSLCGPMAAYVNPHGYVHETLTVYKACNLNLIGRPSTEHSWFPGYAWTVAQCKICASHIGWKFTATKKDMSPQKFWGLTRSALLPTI
Assay Overview: Measurement of molecular interactions using surface plasmon resonance (SPR), Biacore T200
Measurement Setup: 25° C., immobilized CRBN truncate, upper limit of measurement 200 μM
pKd: −log10 of the molar value.

[
  {
    "Compound": "Cc1sc2c(c1C)C(c1ccc(Cl)cc1)=N[C@@H](CC(=O)NCCCCCCCCN1CC3(CC(=O)N(C4CCC(=O)NC4=O)C3=O)C1)c1nnc(C)n1-2 (stereo partly shown) [Example 309]",
    "Experimental Endpoint": "pKd",
    "Reported Value": "≤ 4.00"
  }
]

(Q) Could you share which pKd value was measured for Cc1sc2c(c1C)C(c1ccc(Cl)cc1)=N[C@@H](CC(=O)NCCCCCCc1ccc(S(=O)(=O)N(C)C3CCCC(=O)NC3=O)cc1)c1nnc(C)n1-2 (stereo partly shown) [Example 311] ?
(A) > 4.30

(Q) Again, but for CC(C)(C)OC(=O)Cn1c(=O)n(C2CCCC(=O)NC2=O)c2ccccc21 (stereo not shown) [Example 138]
(A) 4.00 to 4.30

(Q) Another compound: CC(=O)Nc1ccc2nc(N3CCC4(CCCC(=O)NC4=O)C3)sc2c1 (stereo not shown) [Example 87]
(A) ≤ 4.00
